# target: Epidermal growth factor receptor (Homo sapiens)
# test.method.notes: EGFR binders on small-molecule microarrays, primary screen, biochemical, small-molecule microarray, 635 nm fluorescence (AID 1104);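 also: score merges 667 nm emission intensity with spot signal to noise over triplicate slides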
# recorded.conditions: EGFR binding, higher = more signal
measured.attribute: composite z-score
One number for each entry.

Here are 3 compounds together with their reported answers.
Request the reported composite z-score associated with COc1ccc(C(O)C2C=CC3C(=O)N(c4ccccc4)C(=O)C3N2Nc2ccc([N+](=O)[O-])cc2)cc1 (centres undefined)
0.0207

Item under review: "COCCOC(=O)N1C(=O)[C@@]2(c3cc(C#Cc4ccc(OC)cc4)ccc31)[C@H](C(=O)Nc1nc3ccccc3s1)[C@H]1C(=O)O[C@H](c3ccccc3)[C@H](c3ccccc3)N1[C@@H]2c1ccc(O)cc1" . Reported composite z-score?
0.571

Report composite z-score for "[N-]=[N+]=Nc1ccccc1[C@H]1OC(c2ccc(OCCCO)cc2)=N[C@@]1(CCS(=O)(=O)c1ccccc1)C(=O)NCCN1CCOCC1" please.
0.131

Could you now look at the following compound, please?
What value of composite z-score has been recorded for this entry: CC1CC/C=C\[C@H]2OC34C=CCN(C(C)C)C(=O)[C@H]3N(CCCCCCO)C(=O)[C@@H]4C2C(=O)O1 (some centres undefined)
-0.755
